Each entry below lists one item and its recorded growth inhibition value.
# assay remarks: yeast growth toxicity, wild-type and mutant, primary screen, cytotoxicity control for eIF2B function restoration project, wild-type and eIF2Bepsilon R284H mutant, A595 (AID 685);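 note: 0% = untreated cell controls and 100% = YPD media blanks without cells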
# run conditions: S. cerevisiae wild-type growth, A595 turbidity, 16 h; stronger effect = higher value; screened at 25 µM (by protocol)
About 80 (0.3%) of roughly 30,000 compounds were called active. This is one part of a sample in which actives are shown more often than they occur.

compound: Cc1ccc(S(=O)(=O)NC(=O)COc2ccccc2C)cc1
growth inhibition / %: 6.06
//
compound: COc1ccc(NC(=O)COC(=O)Cn2c(C)nc3ccccc32)cc1OC
growth inhibition / %: -7.04
//
compound: Cc1ccc(-c2noc(CSc3nnc(-c4ccncc4)n3-c3ccc(F)cc3)n2)cc1
growth inhibition / %: 17.6
//
compound: CCOc1ccc(NC(=O)C2CCCN(C(=O)Nc3ccccc3)C2)cc1 (stereo not given)
growth inhibition / %: 16.3
//
compound: CCOC(=O)c1cc2c(ccn2C)n1CC(=O)N1CCC(C)CC1
growth inhibition / %: -20.7
//
compound: CCCCN(CC)CCNC(=O)c1[nH]c(C)c(C(C)=O)c1C
growth inhibition / %: 11.2
//
compound: Cc1ccc(C(=O)N2CCCC2)c(F)c1F
growth inhibition / %: 0.21
//
compound: CCOCCCNC(=O)c1c[nH]c2cc(C)ccc2c1=O
growth inhibition / %: 16.6
//
compound: CC(C)N(C(=O)COC(=O)c1ccccc1C(=O)N1CCN(c2ccc(F)cc2)CC1)C(C)C
growth inhibition / %: -10
//
compound: Cc1cccn2c(=O)c(/C=C(\C#N)S(=O)(=O)c3ccc(Cl)cc3)c(N3CCC(C(N)=O)CC3)nc12
growth inhibition / %: 7.31
//
compound: CN(C)/C=C1/C(=O)Nc2ccccc21
growth inhibition / %: 16.7
//
compound: CC1(C)NC(=O)N(CCCCSc2ccc(Cl)cc2)C1=O
growth inhibition / %: 21.2
//
compound: Cc1ccc(S(=O)(=O)N(c2cccc(C)c2)C2CCS(=O)(=O)C2)cc1 (stereo not given)
growth inhibition / %: 8.71
//
compound: C/C(=N\NC(=O)c1nc(C)cc(C)n1)c1ccccc1
growth inhibition / %: 15.2
//
compound: CCC(=NC1CC(C)(C)NC(C)(C)C1)C1=C(O)CC(C)(C)CC1=O
growth inhibition / %: 23.3
